Ref: patent US11759455B2

- ASSAY_TARGET: human GluN1/GluN2B NMDA receptors (Homo sapiens)
- Construct: expressed in transfected cells
- Sequence (Q13224 27-1484, other chains not shown): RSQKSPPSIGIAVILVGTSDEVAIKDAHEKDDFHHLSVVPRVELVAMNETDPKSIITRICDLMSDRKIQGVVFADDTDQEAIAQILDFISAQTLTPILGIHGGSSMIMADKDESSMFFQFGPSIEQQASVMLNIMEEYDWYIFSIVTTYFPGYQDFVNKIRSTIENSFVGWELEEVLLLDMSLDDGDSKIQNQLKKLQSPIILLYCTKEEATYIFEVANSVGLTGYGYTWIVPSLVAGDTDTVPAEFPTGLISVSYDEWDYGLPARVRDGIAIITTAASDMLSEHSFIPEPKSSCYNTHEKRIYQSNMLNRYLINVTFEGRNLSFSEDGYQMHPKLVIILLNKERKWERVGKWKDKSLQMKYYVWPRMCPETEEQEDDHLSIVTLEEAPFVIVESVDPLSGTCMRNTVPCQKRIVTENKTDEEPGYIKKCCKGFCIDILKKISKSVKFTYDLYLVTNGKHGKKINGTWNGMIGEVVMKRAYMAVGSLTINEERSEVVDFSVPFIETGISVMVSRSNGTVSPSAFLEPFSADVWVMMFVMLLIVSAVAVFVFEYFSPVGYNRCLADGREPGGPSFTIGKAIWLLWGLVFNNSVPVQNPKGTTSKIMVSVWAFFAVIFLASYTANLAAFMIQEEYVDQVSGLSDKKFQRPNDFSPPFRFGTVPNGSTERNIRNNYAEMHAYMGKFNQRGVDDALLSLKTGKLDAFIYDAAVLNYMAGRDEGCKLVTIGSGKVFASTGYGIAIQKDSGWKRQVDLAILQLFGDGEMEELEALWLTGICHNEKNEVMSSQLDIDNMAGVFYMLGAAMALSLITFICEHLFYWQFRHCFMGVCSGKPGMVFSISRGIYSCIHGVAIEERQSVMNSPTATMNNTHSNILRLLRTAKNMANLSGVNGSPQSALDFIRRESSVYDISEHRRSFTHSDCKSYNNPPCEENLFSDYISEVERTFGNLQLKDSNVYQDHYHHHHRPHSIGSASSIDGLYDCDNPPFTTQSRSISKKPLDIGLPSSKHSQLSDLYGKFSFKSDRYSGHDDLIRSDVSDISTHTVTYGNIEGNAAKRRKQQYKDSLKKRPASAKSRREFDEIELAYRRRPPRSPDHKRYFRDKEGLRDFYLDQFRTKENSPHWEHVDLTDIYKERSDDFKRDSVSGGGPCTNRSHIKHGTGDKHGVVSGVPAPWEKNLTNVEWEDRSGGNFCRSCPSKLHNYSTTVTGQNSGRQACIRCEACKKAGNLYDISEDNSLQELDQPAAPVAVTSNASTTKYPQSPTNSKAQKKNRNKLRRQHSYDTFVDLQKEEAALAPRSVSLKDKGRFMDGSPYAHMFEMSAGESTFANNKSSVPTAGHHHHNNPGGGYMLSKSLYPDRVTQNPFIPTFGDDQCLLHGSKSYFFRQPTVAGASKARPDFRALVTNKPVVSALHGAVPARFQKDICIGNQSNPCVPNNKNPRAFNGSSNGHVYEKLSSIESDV
- PROCEDURE_DETAILS: Cell-based calcium flux (FLIPR) assay on cloned human NR1/NR2B ion channels expressed in mammalian cells (standard and HTS buffer variants);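 note: stable Tet-On inducible cell line, Ca2+ influx triggered by glutamate at about EC40 plus 10 µM glycine, fluorescent dye read-out over 5 min, normalized to control wells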
- STATED_CONDITIONS: standard assay buffer (0.5 mM MgCl2 dye loading; 137 mM NaCl, 4 mM KCl assay buffer), human GluN1/GluN2B cells, read-out: NR2B IC50 (μM) standard assay
Below, each entry is listed with its recorded IC50.
Quick note: give the figure in µM, leave out the unit.

1. Cn1c(=O)n(Cc2cccnc2)c2cc(-c3ccc(F)c(F)c3)cnc21 = 0.246

For "Cn1c(=O)n(CC(=O)N2CCC2)c2cc(-c3csc(C(F)(F)F)n3)cnc21" , what is its reported IC50?
0.087

For "O=c1[nH]c2ncc(-c3cccc(C(F)(F)F)c3)cc2n1Cc1ccc(F)nc1" , what is its reported IC50?
0.088
